# System: MALME-3M melanoma
# experiment summary: NCI tumour cell line growth inhibition, 48 h; in the data active means GI50 below about 0.43 µM; inactive means the rest
Your reply should match one of these outcome classes. active, inactive

Solved entries:
{"compound": "COc1cccc(/C=C/c2nc3c(cnn3-c3ccccc3)c(=O)[nH]2)c1", "label value": "inactive"}
{"compound": "COc1cc(-n2cc(-c3ccccc3)[nH]c2=O)cc(OC)c1OC", "label value": "inactive"}
{"compound": "C=C1c2ccccc2C(=O)c2c1c1c(C(=O)OC)c(OC(=O)OCc3ccc([N+](=O)[O-])cc3)ccc1n2Cc1ccccc1", "label value": "inactive"}
{"compound": "CCOC(=O)C(Cc1c[nH]c2cc(N(CCO)CCO)ccc12)(NC(C)=O)C(=O)OCC", "label value": "inactive"}
{"compound": "CNCC/C=C1\\c2cc3c(cc2-c2c1c1cc(OC)c(OC)cc1c(=O)n2C)OCO3", "label value": "active"}

Moving on to another compound below.
Could you please tell me the result logged for "O=C(Nc1cccc(-n2cc(-c3ccncc3)c(-c3ccc(O)c(Cl)c3)n2)c1)c1ccc2c(c1)OCCO2" in this assay?
inactive

Source: PubChem BioAssay (NCI)
